Attribute: T/C
Tested on: P388 leukemia ip, CD2F1 mice, survival T/C
test_name: NCI In Vivo Anticancer Drug Screen. Data for tumor model P388 Leukemia (intraperitoneal) in CD2F1 (CDF1) mice
condition: endpoint: median survival time; dose: 50.0 mg/kg/injection; schedule: Q01DX009 (ip); vehicle: saline; higher = longer survival
Toxic doses and inconclusive results are not listed.

compound: NC(=O)CC(=O)O
T/C: 96 % of control
//
compound: CC1(C)N(O)C(c2cccnc2)=[N+]([O-])C1(C)C
T/C: 97 % of control
//
compound: COc1ccc2cc1Oc1ccc(cc1)C[C@H]1c3cc(c(OC)cc3CCN1C)Oc1c(O)c(OC)cc3c1[C@H](C2)N(C)CC3
T/C: 100 % of control
//
compound: CN1CCC(/C=C/c2ccccc2)CN1 (stereo unspecified) (tested in a mixture with another compound)
T/C: 113 % of control
//
compound: N#Cc1ccc(CC(O)(c2ccccc2)c2ccccc2)cc1
T/C: 99 % of control
//
compound: COc1ccc(C2CC(=O)NC(NC#N)=N2)c(O)c1 (stereo unspecified)
T/C: 104 % of control
//
compound: Cc1ncc[nH]1
T/C: 90 % of control
//
compound: C=C(Br)C(=O)N1CCCC1C(=O)NC (stereo unspecified)
T/C: 91 % of control
//
compound: O=C(O)C1=NN(c2ccc(S(=O)(=O)O)cc2)C(=O)C1N=Nc1ccc(S(=O)(=O)O)cc1 (stereo unspecified)
T/C: 95 % of control
//
compound: c1ccc(CSC2=NCCN2)cc1
T/C: 91 % of control
//
compound: CC12NC(=O)NC1(C)NC(=O)N2 (stereo unspecified)
T/C: 107 % of control
